experiment: Chemical stability in aqueous buffer at pH 7.4 after 3 hrs; type: physicochemical; settings: read-out: Stability
METRIC: remaining at 3 h

Look over these answered cases.
INSERT INTO measurements (molecule, experimental_value) VALUES
  ('CC(C)(CO[N+](=O)[O-])C(=O)Oc1ccccc1C(=O)O', '> 95%'),
  ('CC(C)(CCC(CO[N+](=O)[O-])O[N+](=O)[O-])C(=O)Oc1ccccc1C(=O)O (stereo not drawn)', '> 95%'),
  ('O=C(CCCCCO[N+](=O)[O-])Oc1ccccc1C(=O)O', '> 95%');

Now for the molecule whose remaining at 3 h we want.
// query Can you look up the measured remaining at 3 h of O=C(CCCCC(CO[N+](=O)[O-])O[N+](=O)[O-])Oc1ccccc1C(=O)O (stereo not drawn) for me?
// result > 95%

====

Measured half-life, listed per entry for reference.
test: Stability in human serum assessed as half life; type: ADME, cell-free
The reply should contain only the number, in h.

Look over these answered cases.
INSERT INTO assay_data (compound, unit_info, experimental_value) VALUES
  ('O=C(CCO[N+](=O)[O-])Oc1ccccc1C(=O)O', 'h', 0.26),
  ('O=C(CCCCO[N+](=O)[O-])Oc1ccccc1C(=O)O', 'h', 0.76),
  ('O=C(CCCCCCO[N+](=O)[O-])Oc1ccccc1C(=O)O', 'h', 1.19),
  ('CC(C)(CO[N+](=O)[O-])C(=O)Oc1ccccc1C(=O)O', 'h', 9.03),
  ('O=C(CCCO[N+](=O)[O-])Oc1ccccc1C(=O)O', 'h', 0.47),
  ('O=C(CCC(CO[N+](=O)[O-])O[N+](=O)[O-])Oc1ccccc1C(=O)O (configuration not stated)', 'h', 4.09);

// query Can you look up the measured half-life of CC(C)(CCC(CO[N+](=O)[O-])O[N+](=O)[O-])C(=O)Oc1ccccc1C(=O)O (configuration not stated) for me?
// result 15.2

// query Can you look up the measured half-life of O=C(CCCC(CO[N+](=O)[O-])O[N+](=O)[O-])Oc1ccccc1C(=O)O (configuration not stated) for me?
// result 4.87

// query Can you look up the measured half-life of CC(=O)Oc1ccccc1C(=O)O for me?
// result 1.06

// query Can you look up the measured half-life of O=C(CCCCCO[N+](=O)[O-])Oc1ccccc1C(=O)O for me?
// result 2.03

// query Can you look up the measured half-life of O=C(CC(CO[N+](=O)[O-])O[N+](=O)[O-])Oc1ccccc1C(=O)O (configuration not stated) for me?
// result 0.28

// query Can you look up the measured half-life of O=C(CCCCC(CO[N+](=O)[O-])O[N+](=O)[O-])Oc1ccccc1C(=O)O (configuration not stated) for me?
// result 6.25

====

tested on: Plasma; test: Inhibition of collagen-induced platelet aggregation in human plasma in presence of 1H-[1,2,4]oxadiazolo[4,3-a]quinoxalin-1-one
Measured IC50, listed per entry for reference.
The reply should contain only the number, in µM.

INSERT INTO assay_data (molecule, measured_on, experimental_value) VALUES
  ('O=C(CCCO[N+](=O)[O-])Oc1ccccc1C(=O)O', 'Plasma', 24),
  ('O=C(CC(CO[N+](=O)[O-])O[N+](=O)[O-])Oc1ccccc1C(=O)O (centres undefined)', 'Plasma', 119);

// query Can you look up the measured IC50 of O=C(CCO[N+](=O)[O-])Oc1ccccc1C(=O)O for me?
// result 186

// query Can you look up the measured IC50 of O=C(CCCCO[N+](=O)[O-])Oc1ccccc1C(=O)O for me?
// result 91
